molecular target: rat CYP2A1, Cyp2a1 (gene 24894); test: NVS_ADME_rCYP2A1: NovaScreen (NVS) CYP450-related Enzyme Activity (ADME) Assay for rat CYP2A1 (AID 2283114)
The source made the active and inactive calls. The calls were made as follows: active = hit-call score of the fitted dose curve at least 0.9, where 1 is the maximum; inactive = score below 0.9.
// allowed return values: active, inactive

Use these answered entries as a reference point.
> print(dat)
                                   molecule               measurement.target  class.name
1                CC1=C(C(=O)Nc2ccccc2)SCCO1  rat CYP2A1, Cyp2a1 (gene 24894)      active
2  CCCN(CCC)c1c([N+](=O)[O-])cc(S(N)(=O)=O)cc1[N+](=O)[O-]  rat CYP2A1, Cyp2a1 (gene 24894)      active
3    COc1ccc(C(c2ccc(OC)cc2)C(Cl)(Cl)Cl)cc1  rat CYP2A1, Cyp2a1 (gene 24894)    inactive
4  Cc1ccc(-c2c(Cl)nc(C#N)n2S(=O)(=O)N(C)C)cc1  rat CYP2A1, Cyp2a1 (gene 24894)      active
5  CO/C=C(/C(=O)OC)c1ccccc1Oc1cc(Oc2ccccc2C#N)ncn1  rat CYP2A1, Cyp2a1 (gene 24894)      active
6  CC1COC(Cn2cncn2)(c2ccc(Oc3ccc(Cl)cc3)cc2Cl)O1 (stereo not drawn)  rat CYP2A1, Cyp2a1 (gene 24894)      active

Task: Kindly provide the recorded test outcome for the following molecule: CN(C)C(=S)SSC(=S)N(C)C
Result: active

Task: Kindly provide the recorded test outcome for the following molecule: OC(c1ccc(Cl)cc1)(c1cncnc1)c1ccccc1Cl (stereo not drawn)
Result: active

---

Molecular target: zebrafish Thyroid Hormone Receptor beta (TRb), thrb (gene 30607) (UniProt Q9PVE4)
Sequence (Q9PVE4 whole entry, looked up): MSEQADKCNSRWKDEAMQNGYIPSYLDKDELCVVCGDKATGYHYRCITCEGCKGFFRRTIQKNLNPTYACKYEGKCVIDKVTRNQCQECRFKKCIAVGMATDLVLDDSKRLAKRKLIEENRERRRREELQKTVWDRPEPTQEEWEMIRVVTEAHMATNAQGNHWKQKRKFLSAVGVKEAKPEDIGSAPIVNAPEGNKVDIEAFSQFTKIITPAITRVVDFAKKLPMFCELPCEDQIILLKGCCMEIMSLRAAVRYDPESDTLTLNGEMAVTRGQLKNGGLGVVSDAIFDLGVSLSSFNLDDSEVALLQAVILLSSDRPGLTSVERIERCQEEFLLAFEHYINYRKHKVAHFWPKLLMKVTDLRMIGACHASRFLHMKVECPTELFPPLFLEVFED
Assay: ATG_zfTRb_XSP1: Attagene TRANS-FACTORIAL Multi-Species (XSP1) HepG2 Assay for zebrafish Thyroid Hormone Receptor beta (TRb) (AID 2283809)
Description: ATG_XSP1_multi-species_TRANS is a cell-based, multiplexed assay created by modifying the existing Attagene TRANS-FACTORIAL system to include a panel of nuclear receptors from some or all the following species: human (Homo sapiens), mouse (Mus musculus), frog (Xenopus laevis), zebrafish (Danio rerio), chicken (Gallus gallus), and turtle (Chrysemys picta). The ECOTOX-FACTORIAL format uses HepG2, a human liver cell line, with measurements taken at 24 hours after chemical dosing in a 24-well plate. […]
Records with an inconclusive call do not appear. Active and inactive are the calls of the source. How the source made its calls: active means hit-call score of the fitted dose curve at least 0.9, where 1 is the maximum; inconclusive means response in the unintended direction; inactive means score below 0.9.
// allowed return values: yes = active, no = inactive

> print(dat)
                                   molecule                        measurement.target  class.name
1  COC(=O)N(OC)c1ccccc1COc1ccn(-c2ccc(Cl)cc2)n1  zebrafish Thyroid Hormone Receptor beta (TRb), thrb (gene 30607) (UniProt Q9PVE4)          no

Task: Kindly provide the recorded test outcome for the following molecule: CC(C)Oc1cc(-n2nc(C(C)(C)C)oc2=O)c(Cl)cc1Cl
Result: no

Task: Kindly provide the recorded test outcome for the following molecule: CCCCOC(=O)c1ccccc1C(=O)OCCCC
Result: no

Task: Kindly provide the recorded test outcome for the following molecule: CCOP(=S)(OCC)SCn1c(=O)oc2cc(Cl)ccc21
Result: yes

Task: Kindly provide the recorded test outcome for the following molecule: CCCCC(CC)COC(=O)c1ccccc1C(=O)OCC(CC)CCCC (stereo unspecified)
Result: yes

Task: Kindly provide the recorded test outcome for the following molecule: COP(=S)(OC)Oc1nc(Cl)c(Cl)cc1Cl
Result: no
